- System: SW48 human colorectal cancer cells (MSI-H cancer cells)
- Assay overview: SW48 cell viability, CellTiter-Glo, 120 hours (Example B)
- Measurement context: Homo sapiens, SW48, 120 h, read-out: SW48 pCC50, SW48 cell viability, 120 hours incubation (converted); Table 2
Experimental readout: CC50 (µM)
Give a bare numeral; the unit µM is implied.

Worked examples, 6 compounds total:
CC(=O)N1CCc2cc(S(=O)(=O)N(C)c3ccc([C@H]4CCC[C@@H](C(=O)Nc5ccc(C(F)(F)F)cc5F)[C@@H]4C(=O)O)cc3)ccc21 (single isomer, unassigned) = 1.26
O=C(O)[C@@H]1[C@@H](c2ccc(-c3cccc4[nH]ncc34)cc2)CCC[C@H]1C(=O)Nc1ccc(C(F)(F)F)cc1F = 10
N#Cc1ccc(-c2ccc([C@H]3CCC[C@@H](C(=O)Nc4ccc(C(F)(F)F)cc4F)[C@@H]3C(=O)O)cc2)nn1 = 10
Cc1nc2cc(S(=O)(=O)N(C)c3ccc([C@@H]4C[C@H](OCC5CC5)C[C@H](C(=O)Nc5ccc(C(F)(F)F)cc5F)[C@H]4C(=O)O)cc3)ccc2n1C (stereo in doubt) = 20
CC(=O)N[C@@H]1C[C@@H](COc2ccc(C(F)(F)F)cc2)[C@H](C(=O)O)[C@@H](c2ccc(N(C)S(=O)(=O)c3ccc4c(c3)nc(C)n4C)cc2)C1 (single isomer, unassigned) = 10
Cc1nc2cc(S(=O)(=O)N(C)c3ccc([C@H]4CCC[C@@H](C(=O)Nc5ccc(C(F)(F)F)cc5F)[C@@H]4C(=O)O)cc3)c(F)cc2n1C = 1

Task: In one line, give reported CC50 of the entry CCO[C@@H]1C[C@H](c2ccc(N(C)S(=O)(=O)c3ccc4c(c3)ncn4C)cc2)[C@@H](C(=O)O)[C@H](C(=O)Nc2ccc(C(F)(F)F)cc2F)C1 .
Result: 0.158

Task: In one line, give reported CC50 of the entry CN(c1ccc([C@H]2CCC[C@@H](C(=O)Nc3ccc(C(F)(F)F)cc3F)[C@@H]2C(=O)O)cc1)S(=O)(=O)c1c(Cl)cc(C(F)(F)F)cc1Cl .
Result: 3.98

Task: In one line, give reported CC50 of the entry Cc1nc2cc(S(=O)(=O)N(C)c3ccc([C@H]4C[C@H]5COC[C@H]5[C@@H](C(=O)Nc5ccc(C(F)(F)F)cc5F)[C@@H]4C(=O)O)cc3)ccc2n1C (stereo in doubt) .
Result: 0.251

Task: In one line, give reported CC50 of the entry Cc1nc2cc(S(=O)(=O)N(C)c3ccc([C@H]4C[C@@H](OC[C@@H]5CCOC5)C[C@@H](C(=O)Nc5ccc(C(F)(F)F)cc5F)[C@@H]4C(=O)O)cc3)ccc2n1C (stereo in doubt) .
Result: 0.0794

Task: In one line, give reported CC50 of the entry Cc1nc2cc(S(=O)(=O)N(C)c3ccc([C@H]4CCC[C@@H](C(=O)Nc5ccc(C(F)(F)F)cc5F)[C@@H]4C(=O)O)cc3C#CC(C)(C)O)ccc2n1C .
Result: 20
